Test system: CYP3A
method-description: Time- and concentration-dependent inactivation of CYP3A-mediated midazolam hydroxylation in human liver microsomes
Format: in vitro ADME
condition: probe midazolam (1'-hydroxylation), estimated from kobs vs corydaline concentration (10-150 μM), read-out: maximal rate of inactivation (kinact), CYP3A midazolam hydroxylation (converted)
Description: The inhibitory effects of corydaline toward seven major human CYP isoforms and four major human UGT isoforms were evaluated using cocktail CYP probe substrates and each UGT probe substrate in human liver microsomes, respectively. […] To determine whether midazolam metabolism is inhibited by corydaline, we performed time- and concentration-dependent inactivation assays in human liver microsomes. […]
recorded-metric: kinact

{"columns": ["compound", "test-value"],
 "data": [
  ["COc1cc2c(cc1OC)C1C(C)c3ccc(OC)c(OC)c3CN1CC2 (stereo not shown)", "0.00107 s⁻¹"]
]}

###

study-target: CYP2C19 (Homo sapiens, UniProt P33261)
Construct: using pooled human liver microsomes; tissue BD Gentest Co. H161; host or cells: pooled human liver microsomes
Sequence (P33261 whole entry): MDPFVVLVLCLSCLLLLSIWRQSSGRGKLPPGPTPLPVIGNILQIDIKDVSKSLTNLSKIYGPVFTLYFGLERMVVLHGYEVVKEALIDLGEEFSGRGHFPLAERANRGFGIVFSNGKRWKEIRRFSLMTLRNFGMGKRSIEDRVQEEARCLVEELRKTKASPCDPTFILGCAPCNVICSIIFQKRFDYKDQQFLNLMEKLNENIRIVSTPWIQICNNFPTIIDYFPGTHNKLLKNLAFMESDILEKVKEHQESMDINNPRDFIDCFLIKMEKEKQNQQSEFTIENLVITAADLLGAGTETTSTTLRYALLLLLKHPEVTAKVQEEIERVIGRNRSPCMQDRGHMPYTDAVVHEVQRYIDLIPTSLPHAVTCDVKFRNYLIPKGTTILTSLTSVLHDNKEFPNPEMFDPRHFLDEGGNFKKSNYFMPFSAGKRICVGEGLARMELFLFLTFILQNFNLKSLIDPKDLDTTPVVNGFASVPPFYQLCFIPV
method-description: CYP2C19 S-mephenytoin 4'-hydroxylation inhibition in pooled human liver microsomes
Format: in vitro ADME
condition: pooled human liver microsomes (H161); 100 μM S-mephenytoin; mean ± SD, n = 3; read-out: IC50 no preincubation, CYP2C19 S-mephenytoin 4'-hydroxylation

{"columns": ["compound", "IC50 [µM]"],
 "data": [
  ["COc1cc2c(cc1OC)C1C(C)c3ccc(OC)c(OC)c3CN1CC2 (stereo not shown) [Corydaline]", 11.7]
]}

###

study-target: CYP2C19 (Homo sapiens)
pKi: −log10 of the molar value.

{"columns": ["molecule", "pKi"],
 "data": [
  ["COc1cc2c(cc1OC)C1C(C)c3ccc(OC)c(OC)c3CN1CC2 (stereo not shown)", 5.77]
]}

###

study-target: CYP2D6 (Homo sapiens)
Construct: using pooled human liver microsomes; tissue BD Gentest Co. H161; host or cells: pooled human liver microsomes
Sequence (P10635 whole entry): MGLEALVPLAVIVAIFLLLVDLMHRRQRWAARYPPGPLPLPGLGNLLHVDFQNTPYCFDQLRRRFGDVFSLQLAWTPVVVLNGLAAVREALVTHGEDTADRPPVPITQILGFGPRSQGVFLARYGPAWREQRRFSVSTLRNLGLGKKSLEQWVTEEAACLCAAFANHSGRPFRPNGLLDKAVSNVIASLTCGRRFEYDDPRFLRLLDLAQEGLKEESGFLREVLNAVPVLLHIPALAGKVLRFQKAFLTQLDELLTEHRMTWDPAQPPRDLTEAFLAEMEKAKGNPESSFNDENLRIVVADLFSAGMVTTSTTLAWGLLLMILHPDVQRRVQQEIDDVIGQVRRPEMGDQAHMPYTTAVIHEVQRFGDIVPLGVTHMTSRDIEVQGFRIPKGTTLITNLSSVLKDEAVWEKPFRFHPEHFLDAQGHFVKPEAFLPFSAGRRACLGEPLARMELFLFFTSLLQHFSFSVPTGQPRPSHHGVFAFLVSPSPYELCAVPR
method-description: CYP2D6 bufuralol 1'-hydroxylation inhibition in pooled human liver microsomes
Format: in vitro ADME
condition: pre-incubated 30 min with NADPH; 5.0 μM bufuralol; mean ± SD, n = 3; read-out: IC50 with preincubation, CYP2D6 bufuralol 1'-hydroxylation

{"columns": ["compound", "measurement-units", "IC50"],
 "data": [
  ["COc1cc2c(cc1OC)C1C(C)c3ccc(OC)c(OC)c3CN1CC2 (stereo not shown)", "µM", 116]
]}

###

study-target: CYP2C9 (Homo sapiens, UniProt P11712)
Construct: using pooled human liver microsomes; tissue BD Gentest Co. H161; host or cells: pooled human liver microsomes
Sequence (P11712 whole entry): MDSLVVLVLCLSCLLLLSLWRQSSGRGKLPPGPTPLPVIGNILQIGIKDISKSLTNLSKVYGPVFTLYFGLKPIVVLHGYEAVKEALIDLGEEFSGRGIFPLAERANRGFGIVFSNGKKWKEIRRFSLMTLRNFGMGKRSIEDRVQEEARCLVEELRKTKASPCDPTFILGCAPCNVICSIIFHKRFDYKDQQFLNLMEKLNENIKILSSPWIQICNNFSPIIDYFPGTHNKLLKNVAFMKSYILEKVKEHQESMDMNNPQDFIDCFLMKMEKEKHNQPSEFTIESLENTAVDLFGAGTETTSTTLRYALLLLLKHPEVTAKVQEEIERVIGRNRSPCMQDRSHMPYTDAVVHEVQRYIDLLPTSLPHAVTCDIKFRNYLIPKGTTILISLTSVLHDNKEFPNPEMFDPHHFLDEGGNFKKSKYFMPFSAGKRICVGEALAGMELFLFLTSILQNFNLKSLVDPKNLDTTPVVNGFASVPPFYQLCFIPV
method-description: CYP2C9 diclofenac 4-hydroxylation inhibition in pooled human liver microsomes
Type: in vitro ADME
condition: pooled human liver microsomes (H161); 10 μM diclofenac; mean ± SD, n = 3; read-out: IC50 no preincubation, CYP2C9 diclofenac 4-hydroxylation
pIC50: −log10 of the molar value.

{"columns": ["compound", "pIC50"],
 "data": [
  ["COc1cc2c(cc1OC)C1C(C)c3ccc(OC)c(OC)c3CN1CC2 (stereo not shown) [Corydaline]", 4.58]
]}

###

study-target: CYP2D6 (Homo sapiens)
pKi: −log10 of the molar value.

{"columns": ["compound", "pKi"],
 "data": [
  ["COc1cc2c(cc1OC)C1C(C)c3ccc(OC)c(OC)c3CN1CC2 (stereo not shown) [Corydaline]", 4.56]
]}

The measured values listed here are drawn from paper PMC6264278.
